// pIC50 lookup, one value per entry
tested.system: F1F0-ATPase (Bos taurus)
pIC50: −log10 of the molar value.

Study these solved cases before continuing.
CCOCCNC(=NC(=O)c1ccc(F)c(F)c1)Nc1n[nH]c2c(C(F)(F)F)cccc12 [Compound A-60]
4.80 to 5.30
COCC(C)NC(=NC(=O)c1cccc(Cl)c1)Nc1n[nH]c2cc(F)ccc12 (centres unmarked) [Compound A-85]
> 5.30

Query: pIC50; subject: O=C(/N=C(\Nc1n[nH]c2cc(C(F)(F)F)ccc12)NC1CCCC1)c1ccc(Cl)c(F)c1 [Compound A-19]
> 5.30

Query: pIC50; subject: CC(C)CN/C(=N/C(=O)c1ccc(F)c(F)c1)Nc1n[nH]c2cc(Cl)ccc12 [Compound A-31]
> 5.30

Query: pIC50; subject: CC(C)(C)N/C(=N/C(=O)c1ccc(F)c(F)c1)Nc1n[nH]c2c(C(F)(F)F)cccc12 [Compound A-57]
< 4.80

Query: pIC50; subject: CC(C)(C)N/C(=N/C(=O)c1ccc(F)c(F)c1)Nc1n[nH]c2cncc(F)c12 [Compound A-32]
> 5.30

Query: pIC50; subject: CC(C)CNC(=NC(=O)c1ccc(F)c(F)c1)Nc1n[nH]c2c(C(F)(F)F)cccc12 [Compound A-58]
4.80 to 5.30

Query: pIC50; subject: COC[C@H](C)N/C(=N/C(=O)c1ccc(Cl)c(F)c1)Nc1n[nH]c2cc(C(F)(F)F)ccc12 [Compound A-17]
> 5.30
